Experiment: Plasma and urine pharmacokinetics of verinurad
Format: in vivo
Settings: human, plasma, oral, mean t½, varying verinurad doses alone or in combination with febuxostat
experimental_endpoint: half-life

[[record]]
smiles_code = "CC(C)(Sc1ccncc1-c1ccc(C#N)c2ccccc12)C(=O)O"
result = "13 to 24 h"


* * *

Assay: Plasma and urine pharmacokinetics of verinurad
Format: in vivo
Conditions: human, urine and plasma, oral
experimental_endpoint: CL renal

[[record]]
smiles_code = "CC(C)(Sc1ccncc1-c1ccc(C#N)c2ccccc12)C(=O)O"
result = "12.4 to 15.1 mL/min"


The measured values listed here are drawn from paper PMC6105922.
